FYI, the data here is from patent US20060276464A1.

Molecular target: SFRP-1 (Homo sapiens, UniProt Q8N474)
Sequence (Q8N474 32-314): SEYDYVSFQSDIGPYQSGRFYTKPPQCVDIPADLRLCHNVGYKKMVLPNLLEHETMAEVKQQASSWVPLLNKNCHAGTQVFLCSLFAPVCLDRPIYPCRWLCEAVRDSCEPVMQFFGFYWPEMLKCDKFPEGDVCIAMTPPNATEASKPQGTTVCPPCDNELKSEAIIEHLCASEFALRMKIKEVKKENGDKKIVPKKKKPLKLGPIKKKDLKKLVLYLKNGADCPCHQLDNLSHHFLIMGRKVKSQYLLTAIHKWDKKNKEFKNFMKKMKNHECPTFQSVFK
Test: Cell-based assay for in vitro measurement of SFRP-1/SARP2 antagonist activity (U2OS cells co-transfected with 16x TCF-tk-Luciferase reporter, Wnt and hSFRP-1)
quantity measured: EC50 (nM)

[[record]]
molecule = "CNc1ccc(S(=O)(=O)c2ccc(C(F)(F)F)c(S(=O)(=O)NC3CCNCC3)c2)cc1 [Example 842]"
recorded_measurement = 670

[[record]]
molecule = "O=S(=O)(NCCc1ccc(O)cc1)c1cc(S(=O)(=O)c2ccccc2)ccc1C(F)(F)F [Example 943]"
recorded_measurement = 569

[[record]]
molecule = "CN(CCNS(=O)(=O)c1cc(S(=O)(=O)c2ccccc2)ccc1C(F)(F)F)CCC(=O)OC(C)(C)C [Example 961]"
recorded_measurement = 2550

[[record]]
molecule = "O=S(=O)(NCCc1cccnc1)c1cc(S(=O)(=O)c2cccc(Cl)c2)ccc1C(F)(F)F [Example 755]"
recorded_measurement = 1430

[[record]]
molecule = "O=C(O)c1cccc(N2CCC(CNS(=O)(=O)c3cc(S(=O)(=O)c4ccccc4)ccc3C(F)(F)F)CC2)c1 [Example 956]"
recorded_measurement = 310

[[record]]
molecule = "CN(CCNS(=O)(=O)c1cc(S(=O)(=O)c2ccccc2)ccc1C(F)(F)F)C(=O)N(C)C1CCNCC1 [Example 1007]"
recorded_measurement = 1520

[[record]]
molecule = "CCc1ccc(S(=O)(=O)c2ccccc2)cc1S(=O)(=O)NC1CCNCC1 [Example 921]"
recorded_measurement = 2360

[[record]]
molecule = "COC(=O)[C@H]1CC[C@H](CNS(=O)(=O)c2cc(S(=O)(=O)c3ccccc3)ccc2C(F)(F)F)CC1 [Example 947]"
recorded_measurement = 695

[[record]]
molecule = "O=S(=O)(NCc1ccc(N2CCCC2)nc1)c1cc(S(=O)(=O)c2ccccc2)ccc1C(F)(F)F [Example 1032]"
recorded_measurement = 1440

[[record]]
molecule = "CN(CCNS(=O)(=O)c1cc(S(=O)(=O)c2ccccc2)ccc1C(F)(F)F)CC(=O)OC(C)(C)C [Example 962]"
recorded_measurement = 2860

[[record]]
molecule = "O=C(O)CCCC(=O)N1CCC(NS(=O)(=O)c2cc(S(=O)(=O)c3ccccc3)ccc2C(F)(F)F)C1 (centres unmarked) [Example 895]"
recorded_measurement = 871

[[record]]
molecule = "CCOC(=O)CNC(=O)N(C)CCNS(=O)(=O)c1cc(S(=O)(=O)c2ccccc2)ccc1C(F)(F)F [Example 882]"
recorded_measurement = 627

[[record]]
molecule = "CN(CCCNS(=O)(=O)c1cc(S(=O)(=O)c2ccccc2)ccc1C(F)(F)F)C(=O)OC(C)(C)C [Example 927]"
recorded_measurement = 4510

[[record]]
molecule = "CN(CCNS(=O)(=O)c1cc(S(=O)(=O)c2ccccc2)ccc1C(F)(F)F)S(=O)(=O)c1cccc(C(=O)O)c1 [Example 883]"
recorded_measurement = 2570

[[record]]
molecule = "O=C(c1ccnc(Cl)c1)N1CCC(NS(=O)(=O)c2cc(S(=O)(=O)c3ccccc3)ccc2C(F)(F)F)CC1 [Example 978]"
recorded_measurement = 392

[[record]]
molecule = "CC(C)(C)OC(=O)N1CCC(NS(=O)(=O)c2cc(S(=O)(=O)c3ccc(C(=O)O)cc3)ccc2C(F)(F)F)CC1 [Example 1066]"
recorded_measurement = 615

[[record]]
molecule = "O=S(=O)(N[C@H]1CC[C@H](O)CC1)c1cc(S(=O)(=O)c2ccccc2)ccc1C(F)(F)F [Example 1013]"
recorded_measurement = 277

[[record]]
molecule = "O=C([C@@H]1CCCN1C(=O)c1ccc(Cl)nc1)N1CCC(NS(=O)(=O)c2cc(S(=O)(=O)c3ccccc3)ccc2C(F)(F)F)CC1 [Example 1079]"
recorded_measurement = 329

[[record]]
molecule = "N#Cc1ccc(C(=O)N2CCC(NS(=O)(=O)c3cc(S(=O)(=O)c4ccccc4)ccc3Cl)CC2)cc1 [Example 657]"
recorded_measurement = 9030

[[record]]
molecule = "CC(C)c1ccc(S(=O)(=O)c2ccccc2)cc1S(=O)(=O)NC1CCN(C(=O)c2cccc3ccccc23)CC1 [Example 808]"
recorded_measurement = 945

[[record]]
molecule = "O=S(=O)(NCCn1ccnc1)c1cc(S(=O)(=O)c2ccc(F)cc2)ccc1C(F)(F)F [Example 816]"
recorded_measurement = 1510

[[record]]
molecule = "O=C(c1ccccc1)c1ccc(C(=O)N2CCC(NS(=O)(=O)c3cc(S(=O)(=O)c4ccccc4)ccc3C(F)(F)F)CC2)cc1 [Example 800]"
recorded_measurement = 738

[[record]]
molecule = "CSc1ccc(C(=O)N2CCC(NS(=O)(=O)c3cc(S(=O)(=O)c4ccccc4)ccc3C(F)(F)F)CC2)cc1 [Example 1050]"
recorded_measurement = 660

[[record]]
molecule = "CN(CCNS(=O)(=O)c1cc(S(=O)(=O)c2ccccc2)ccc1C(F)(F)F)C(=O)Oc1cccc(C(F)(F)F)c1 [Example 871]"
recorded_measurement = 3810

[[record]]
molecule = "O=C(O)c1cccc(N2CCC(CCNS(=O)(=O)c3cc(S(=O)(=O)c4ccccc4)ccc3C(F)(F)F)CC2)c1 [Example 957]"
recorded_measurement = 1390

[[record]]
molecule = "O=S(=O)(N[C@H]1CCNC1)c1cc(S(=O)(=O)c2ccccc2)ccc1C(F)(F)F [Example 796]"
recorded_measurement = 1350

[[record]]
molecule = "COC(=O)[C@H]1CC[C@H](CNS(=O)(=O)c2cc(S(=O)(=O)c3ccccc3)ccc2C(C)C)CC1 [Example 934]"
recorded_measurement = 2730

[[record]]
molecule = "O=C(O)CN1CCC(CNS(=O)(=O)c2cc(S(=O)(=O)c3ccccc3)ccc2C(F)(F)F)CC1 [Example 941]"
recorded_measurement = 1340

[[record]]
molecule = "CCCCNC(=O)N(C)CCNS(=O)(=O)c1cc(S(=O)(=O)c2ccccc2)ccc1C(F)(F)F [Example 831]"
recorded_measurement = 1460


* * *

Target: UniProt:Q8N474
Experiment: Cell-based assay for in vitro measurement of SFRP-1/SARP2 antagonist activity (U2OS cells co-transfected with 16x TCF-tk-Luciferase reporter, Wnt and hSFRP-1)
Conditions: U2OS, read-out: Fold Induction without SFRP-1, Conc 15 μM; without SFRP-1, single dose
Measured fold induction at 15 µM of individual entries
quantity measured: fold induction at 15 µM

[[record]]
compound = "CCc1ccc(S(=O)(=O)c2ccccc2)cc1S(=O)(=O)NCCCN1CCCC1 [Example 232]"
recorded_measurement = 1.6

[[record]]
compound = "Cc1ccc(S(=O)(=O)c2ccc(C(C)(C)C)cc2)cc1S(=O)(=O)NCCc1ccccn1 [Example 438]"
recorded_measurement = 1

[[record]]
compound = "CCS(=O)(=O)c1cccc(S(=O)(=O)c2ccc(C)c(S(=O)(=O)NCCc3ccccn3)c2)c1 [Example 429]"
recorded_measurement = 0.8

[[record]]
compound = "Cc1ccc(S(=O)(=O)c2ccc(Cl)cc2)cc1S(=O)(=O)NCCCn1ccnc1 [Example 292]"
recorded_measurement = 0.8

[[record]]
compound = "O=S(=O)(NCCc1ccccn1)c1cc(S(=O)(=O)c2ccccc2)ccc1C1CCCCC1 [Example 459]"
recorded_measurement = 0.9

[[record]]
compound = "COc1cccc(C(=O)N2CCC(NS(=O)(=O)c3cc(S(=O)(=O)c4ccccc4)ccc3C)CC2)c1 [Example 463]"
recorded_measurement = 1

[[record]]
compound = "CC(C)c1ccc(S(=O)(=O)c2ccc(F)cc2)cc1S(=O)(=O)NCCc1c[nH]cn1 [Example 442]"
recorded_measurement = 1

[[record]]
compound = "CC(C)c1ccc(S(=O)(=O)c2ccc(F)cc2)cc1S(=O)(=O)NC[C@H](C)c1ccccc1 [Example 443]"
recorded_measurement = 1.1


* * *

Molecular target: SFRP-1 (Homo sapiens, UniProt Q8N474)
Assay: Cell-based assay for in vitro measurement of SFRP-1/SARP2 antagonist activity (U2OS cells co-transfected with 16x TCF-tk-Luciferase reporter, Wnt and hSFRP-1);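 further: U2OS cells co-transfected with a TCF-tk luciferase reporter, a Wnt vector, hSFRP-1 or empty vector and CMV-βgal, luciferase luminescence read in cell lysates alongside βgal activity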
Conditions: U2OS, read-out: Fold Induction with SFRP-1, U2OS cells, single dose 10 μM, luciferase reporter, fold induction over SFRP-1 control
Measured fold induction at 10 µM of individual entries
quantity measured: fold induction at 10 µM

[[record]]
molecule = "CC(C)c1ccc(S(=O)(=O)c2ccccc2)cc1S(=O)(=O)NC1CCN(C(=O)c2ccc(F)cc2)CC1 [Example 805]"
recorded_measurement = 3

[[record]]
molecule = "CN(CCCNS(=O)(=O)c1cc(S(=O)(=O)c2ccccc2)ccc1C(F)(F)F)C(=O)OC(C)(C)C [Example 927]"
recorded_measurement = 2.1

[[record]]
molecule = "O=S(=O)(NC1CCOCC1)c1cc(S(=O)(=O)c2cccc(O)c2)ccc1C(F)(F)F [Example 744]"
recorded_measurement = 3.1

[[record]]
molecule = "CN(CCNS(=O)(=O)c1cc(S(=O)(=O)c2ccccc2)ccc1C(F)(F)F)C(=O)Nc1ccc(F)cc1F [Example 832]"
recorded_measurement = 3.4

[[record]]
molecule = "CC(C)c1ccc(S(=O)(=O)c2ccccc2)cc1S(=O)(=O)NC1C[C@H]2CC[C@@H](C1)N2C.Cl (relative stereo) [Example 860, monohydrochloride]"
recorded_measurement = 4.1

[[record]]
molecule = "CN(CCNS(=O)(=O)c1cc(S(=O)(=O)c2ccccc2)ccc1C(F)(F)F)C(=O)NC1CCN(C(=O)OC(C)(C)C)CC1 [Example 866]"
recorded_measurement = 4.6

[[record]]
molecule = "CC(C)(C)OC(=O)N1CCC[C@@H](NS(=O)(=O)c2cc(S(=O)(=O)c3ccccc3)ccc2C(F)(F)F)C1 [Example 787]"
recorded_measurement = 3.7

[[record]]
molecule = "CN(CCNS(=O)(=O)c1cc(S(=O)(=O)c2ccccc2)ccc1C(F)(F)F)C(=O)N1CCNCC1 [Example 898]"
recorded_measurement = 3.1

[[record]]
molecule = "O=S(=O)(NC[C@H](O)c1ccccc1)c1cc(S(=O)(=O)c2ccccc2)ccc1C(F)(F)F [Example 773]"
recorded_measurement = 1.2

[[record]]
molecule = "Cc1ccc2c(c1)CCCN2C(=O)CCNS(=O)(=O)c1cc(S(=O)(=O)c2ccccc2)ccc1C [Example 669]"
recorded_measurement = 0.9

[[record]]
molecule = "Cc1ccc(S(=O)(=O)c2ccccc2)cc1S(=O)(=O)NC1CCSCC1 [Example 798]"
recorded_measurement = 1.8

[[record]]
molecule = "COc1ccc(C(=O)NCCNS(=O)(=O)c2cc(S(=O)(=O)c3ccccc3)ccc2C(F)(F)F)cc1 [Example 780]"
recorded_measurement = 1.7

[[record]]
molecule = "O=S(=O)(NCCc1nn[nH]n1)c1cc(S(=O)(=O)c2ccccc2)ccc1C(F)(F)F [Example 863]"
recorded_measurement = 2.4

[[record]]
molecule = "CC(C)(C)c1ccc(S(=O)(=O)N2CCC(NS(=O)(=O)c3cc(S(=O)(=O)c4ccccc4)ccc3C(F)(F)F)CC2)cc1 [Example 748]"
recorded_measurement = 2.8

